Origin of values: patent US7288567B2

Tested on: histone deacetylase enzyme in nuclear extracts from H446 cells (pooled HDACs)
Assay: Histone deacetylase inhibition, H446 nuclear extracts (pooled HDACs)
Assay type: biochemical, human
Settings: H446 nuclear extract, [3H]-acetylated histone substrate
pIC50: −log10 of the molar value.
Measured pIC50 accompanies every entry in the list below.
ENDPOINT: pIC50

1) CC(/C=C/C(=O)NO)=C\C(C)Cc1ccc(N(C)C)cc1 (centres unmarked) [Compound 38]; < 4.70
2) COC(c1ccc(N(C)C)cc1)C(C)/C=C(C)/C=C/C(=O)Nc1ccccc1N (centres unmarked) [Compound 34]; < 4.00
3) CC(/C=C/C(=O)Nc1ccccc1N)=C\C(C)Cc1ccc(N(C)C)cc1 (centres unmarked) [Compound 39]; < 4.70
4) Nc1ccccc1NC(=O)CCCCCCC(=O)c1ccc(Br)cc1 [Compound 114]; < 4.70
5) COC(c1ccc(N(C)C)cc1)C(C)/C=C(C)/C=C/C(=O)NO (centres unmarked) [Compound 33]; < 5.00

----------
Molecular target: recombinant human HDAC-1 enzyme (rHDAC-1) (Homo sapiens)
Construct: made in house; host or cells: Baculovirus insect cell expression system
Experiment: Histone deacetylase inhibition, recombinant human HDAC-1
Format: biochemical
Conditions: cloned recombinant human HDAC-1, Baculovirus insect cell expression; read-out: rHDAC-1 IC50
Items are presented alongside their recorded IC50.
ENDPOINT: IC50 (nM)

1. COc1ccc(C(C/C=C/C=C/C(=O)Nc2ccccc2N)OC)cc1 (stereo not drawn); 1000
2. O=C(CCCCS(=O)(=O)CC(=O)c1ccc2ccccc2c1)NO [Compound 229a]; 1000
3. CC(=O)SCC(=O)CCCCCCC(=O)c1cc2ccccc2n1C; 90

----------
Target: recombinant human HDAC-1 enzyme (rHDAC-1) (Homo sapiens)
Construct: made in house; host or cells: Baculovirus insect cell expression system
Assay: Histone deacetylase inhibition, recombinant human HDAC-1
Assay type: biochemical
Settings: cloned recombinant human HDAC-1, Baculovirus insect cell expression; read-out: rHDAC-1 IC50
ENDPOINT: IC50 (nM)

1. Nc1ccccc1NC(=O)CCCCCC(=O)c1ccc(-c2ccccc2)cc1; 1000
2. O=C(CCCCCCC(=O)c1ccccc1)CSC(=O)c1ccccc1 [Compound 159f, 1-Benzoylthio-2,9-dioxo-9-phenyl-nonane]; 700
3. Nc1ccccc1NC(=O)CCCCCCC(=NO)c1cccc(-c2ccccc2)c1 (mixture of isomers); 1000

----------
Molecular target: recombinant human HDAC-1 enzyme (rHDAC-1) (Homo sapiens, UniProt Q13547)
Construct: made in house; host or cells: Baculovirus insect cell expression system
Sequence (Q13547 whole entry): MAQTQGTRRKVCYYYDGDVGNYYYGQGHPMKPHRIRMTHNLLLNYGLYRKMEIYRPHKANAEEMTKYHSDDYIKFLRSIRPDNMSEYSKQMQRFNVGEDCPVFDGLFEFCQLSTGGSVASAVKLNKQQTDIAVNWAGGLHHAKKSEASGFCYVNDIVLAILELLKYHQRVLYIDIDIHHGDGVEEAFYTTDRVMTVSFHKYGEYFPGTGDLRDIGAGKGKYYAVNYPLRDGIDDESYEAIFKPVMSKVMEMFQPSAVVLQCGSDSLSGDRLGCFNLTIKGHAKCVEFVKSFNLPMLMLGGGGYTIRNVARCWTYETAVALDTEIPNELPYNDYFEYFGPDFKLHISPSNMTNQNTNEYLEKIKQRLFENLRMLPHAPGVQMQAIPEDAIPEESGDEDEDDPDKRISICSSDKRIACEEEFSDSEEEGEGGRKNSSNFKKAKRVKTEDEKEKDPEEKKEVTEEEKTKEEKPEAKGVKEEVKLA
Experiment: Histone deacetylase inhibition, recombinant human HDAC-1
Assay type: biochemical
Settings: cloned recombinant human HDAC-1, Baculovirus insect cell expression; read-out: rHDAC-1 IC50
Experimental: The reaction was stopped by adding acetic acid (0.04 M, final concentration) and HCl (250 mM, final concentration). The mixture was extracted with ethyl acetate and the released [^3H]-acetic acid was quantified by scintillation counting. […] IC50 values for HDAC enzyme inhibitors were determined by performing dose response curves with individual compounds and determining the concentration of inhibitor producing fifty percent of the maximal inhibition.
pIC50: −log10 of the molar value.
ENDPOINT: pIC50

1) CC(/C=C/C(=O)Nc1ccccc1N)=C\C(C)C(=O)c1ccc(N(C)C)cc1 (stereo not drawn); 5.70
2) COc1ccc(C(OC)C(C)(C)/C=C/C=C/C(=O)NO)cc1 (stereo not drawn); 6.00
3) O=C(CCCCCCC(=O)c1ccc(-c2ccccc2)nc1)NO; 8.10
4) Nc1ccccc1NC(=O)CCCCCN1C(=O)c2ccncc2C1=O [Compound 246b]; 4.85
5) O=C(CCCCCCC(=O)c1cc2ccccc2o1)NO [Compound 52l]; 7.52
6) CC(=O)SCC(=O)CCCCCCC(=O)c1cc2ccccc2[nH]1; 6.40
7) O=C(CCCCCCC(=O)c1ccc(C(F)(F)F)cc1)NO [Compound 52c]; 7.22

----------
Consider the following compounds and their measured IC50 readings.
Biological target: recombinant human HDAC-1 enzyme (rHDAC-1) (Homo sapiens, UniProt Q13547)
Construct: made in house; host or cells: Baculovirus insect cell expression system
Assay: Histone deacetylase inhibition, recombinant human HDAC-1
Format: biochemical
Settings: cloned recombinant human HDAC-1, Baculovirus insect cell expression; read-out: rHDAC-1 IC50
ENDPOINT: IC50 (nM)

1) O=C(CCCCCCC(=NO)c1cc2ccccc2o1)NO (mixture of isomers) [Compound 98]; 30
2) COc1ccc(C(=O)CCCCCCC(=O)Nc2ccccc2N)cc1 [Compound 53b]; 1000
3) Nc1ccccc1NC(=O)CCCCCN1C(=O)c2cccc3c(Br)ccc(c23)C1=O [Compound 251b]; 1000
4) Nc1ccccc1NC(=O)CCCCCCCC(=O)c1ccc(-c2ccccc2)cc1 [Compound 130]; 3000
5) Nc1ccccc1NC(=O)CCCCCCC(=O)c1ccc(-c2ccccc2)nc1 [Compound 146]; 2000

----------
Biological target: recombinant human HDAC-1 enzyme (rHDAC-1) (Homo sapiens)
Construct: made in house; host or cells: Baculovirus insect cell expression system
Assay: Histone deacetylase inhibition, recombinant human HDAC-1
Format: biochemical
Conditions: cloned recombinant human HDAC-1, Baculovirus insect cell expression; read-out: rHDAC-1 IC50
Method: The reaction was stopped by adding acetic acid (0.04 M, final concentration) and HCl (250 mM, final concentration). The mixture was extracted with ethyl acetate and the released [^3H]-acetic acid was quantified by scintillation counting. […] IC50 values for HDAC enzyme inhibitors were determined by performing dose response curves with individual compounds and determining the concentration of inhibitor producing fifty percent of the maximal inhibition.
ENDPOINT: IC50 (nM)

1) Nc1ccccc1NC(=O)CCCCCN1C(=O)c2ccccc2C1=O [Compound 243a]; 1600
2) Nc1ccccc1NC(=O)CCCCCCC(=O)c1ccc(-c2ccc(CN3CCOCC3)cc2)cc1; 4000
3) CC(C)(C)OC(=O)N1CCN(c2ccc(C(=O)CCCCCCC(=O)NO)cc2)CC1; 30
4) O=C(CCCCCCC(=O)c1ccccc1)CSCc1ccccc1 [Compound 159c, 1-Benzylthio-2,9-dioxo-9-phenyl-nonane]; 5000
5) O=C(CCCCCCC(=O)c1ccccc1)CSc1ccccc1 [Compound 159d, 1-Phenylthio-2,9-dioxo-9-phenyl-nonane]; 5000
6) O=C(CCCCCC/C(=N\O)c1cc2ccccc2s1)NO; 8
7) Nc1ccccc1NC(=O)CCCCCCC(=O)c1ccc2ccccc2c1; 2200
